B1: VPS39 (parent)
chain: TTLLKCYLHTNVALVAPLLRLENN

- Variants of: B1
- assayMethodText: protein stability index of a GFP-peptide fusion (GPS, HEK-293T) (PSI 1-6); higher = more stable;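 note: lentivirally expressed fusions sorted by FACS into six bins by GFP to DsRed ratio, PSI derived from sequencing read proportions per bin multiplied by bin number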
- testContext: c terminus: a fixed tail appended
Please note: class 1 applies when protein stability index is 2 or greater, and class 0 applies otherwise.

Input line: Check if protein stability index >= 2 (inclusive). Item: L8E
Output line: class 0

Input line: Check if protein stability index >= 2 (inclusive). Item: K5E
Output line: class 1

Input line: Check if protein stability index >= 2 (inclusive). Item: P17E
Output line: class 1

Input line: Check if protein stability index >= 2 (inclusive). Item: E22L
Output line: class 1

Input line: Check if protein stability index >= 2 (inclusive). Item: E22C
Output line: class 0

Input line: Check if protein stability index >= 2 (inclusive). Item: C6P
Output line: class 1

Input line: Check if protein stability index >= 2 (inclusive). Item: L4S
Output line: class 1
